Study the reported IC50 values for TYRO3 (Homo sapiens) given below; they originate from different publications.

Problem: What value of IC50 has been recorded for this entry: `COC[C@H](C)Nc1ncc2c(-c3cnn(C4COC4)c3)cc([C@@H]3CC[C@@H](O)[C@H](C)C3)n2n1`
Solution: ≤ 0.1 µM

Problem: What do you have for CCCC(C)Nc1ncc2c(OCCN3CCOCC3)ncc([C@H]3CC[C@H](O)CC3)c2n1 (stereo partly drawn) ?
Solution: 0.1 to 1 µM

Problem: Cool, now `CC[C@H](C)Nc1ncc2c(OC(CO)CO)ncc([C@H]3CC[C@H](O)CC3)c2n1`
Solution: ≤ 0.1 µM

Problem: Please give the result for `CCC(CC)Nc1ncc2c(OC3CCNCC3)ncc([C@H]3CC[C@H](O)CC3)c2n1` too.
Solution: 0.1 to 1 µM

Problem: Similarly, `CC1(Nc2ncc3c(OC4CCNCC4)ncc([C@H]4CC[C@H](O)CC4)c3n2)CC1` ?
Solution: ≤ 0.1 µM

Problem: Now consider `COc1cc2nccc(Oc3ncc(NC(=O)c4cn(C(C)C)nc(-c5ccc(F)cc5)c4=O)cn3)c2cc1OC` .
Solution: 0.143 µM

Problem: Thanks! And `CC(C)C(=O)N1CCC(c2cc(-c3ccc(NC(=O)c4cn(C5CC5)c(=O)n(-c5cccnc5)c4=O)cc3)c3c(N)ncnn23)CC1` ?
Solution: > 0.1 µM

Problem: Input `Cc1ccc(Cl)cc1Nc1ncc2c(OC3CCNCC3)ncc([C@H]3CC[C@H](O)CC3)c2n1`
Solution: ≤ 0.1 µM

Problem: Note, next up: `COc1cc2nccc(Oc3ncc(NC(=O)c4nn(C5CC5)cc(-c5ccc(F)cc5)c4=O)cn3)c2cc1OC`
Solution: 0.012 µM

Problem: Check `COc1cc2nccc(Oc3ccc(NC(=O)c4cn(CC5CCS(=O)(=O)CC5)cc(-c5ccc(C)cc5)c4=O)nc3)c2cc1OC` too.
Solution: 0.192 µM

Problem: Note, next up: `COC[C@H](C)Nc1ncc2c(-c3cnn(Cc4cncc(C)n4)c3)cc([C@H]3CC[C@H](O)CC3)n2n1`
Solution: ≤ 0.1 µM

Problem: Now this one: `CS(=O)(=O)N1CCC(c2cc(-c3ccc(NC(=O)c4cccn(-c5ccccc5)c4=O)cc3)c3c(N)ncnn23)CC1`
Solution: > 0.1 µM

Problem: Entry to check: `COC[C@H](C)Nc1ncc2c(OC3CCOCC3)ncc(C3CCC(F)(F)CC3)c2n1`
Solution: 0.1 to 1 µM

Problem: Note, next up: `NC(=O)c1ccc(Nc2ncc3c(OC4CCOCC4)ncc([C@H]4CC[C@H](O)CC4)c3n2)cc1`
Solution: ≤ 0.1 µM

Problem: Request: C[C@@H]1CCCN1C1(C)CCc2ccc(-c3cnc4[nH]nc(-c5cnc(C(C)(C)O)c(Cl)c5)c4c3)cc2CC1 (stereo partly drawn)
Solution: 0.1 to 1 µM
